Study System: HER2 (Homo sapiens, UniProt P04626)
Construct: GST (Glutathione-S-Transferase) (N); HIS6 (N); thrombin cleavage site (N)
Sequence (P04626 679-1255): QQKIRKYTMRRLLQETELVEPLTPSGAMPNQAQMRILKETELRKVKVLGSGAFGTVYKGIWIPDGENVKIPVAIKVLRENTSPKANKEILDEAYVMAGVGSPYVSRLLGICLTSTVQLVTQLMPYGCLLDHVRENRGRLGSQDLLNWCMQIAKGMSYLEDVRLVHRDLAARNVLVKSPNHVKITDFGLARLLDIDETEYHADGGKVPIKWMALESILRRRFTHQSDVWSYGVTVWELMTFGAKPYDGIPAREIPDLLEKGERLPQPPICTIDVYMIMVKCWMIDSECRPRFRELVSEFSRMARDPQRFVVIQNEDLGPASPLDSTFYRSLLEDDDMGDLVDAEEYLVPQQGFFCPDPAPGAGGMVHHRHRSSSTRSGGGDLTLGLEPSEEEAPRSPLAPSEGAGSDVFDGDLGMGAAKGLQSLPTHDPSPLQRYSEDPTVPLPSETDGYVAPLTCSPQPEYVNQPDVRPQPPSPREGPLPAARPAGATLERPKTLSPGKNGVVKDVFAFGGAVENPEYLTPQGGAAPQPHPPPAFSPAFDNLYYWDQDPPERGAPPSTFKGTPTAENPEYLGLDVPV
Protocol Details: HER2 kinase screening assay (33P-ATP FlashPlate);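 note: Biotin-poly(GT) 4:1 peptide captured on streptavidin FlashPlate, 33P transfer from γ-ATP read by scintillation counting, lower incorporation means inhibition, 1% DMSO final, 100 µL reaction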
Conditions: GST-HIS6 HER-2 aa 679 to 1255; 10 μM ATP; 1 hr at 30° C
pIC50: −log10 of the molar value.
Could you please report measured pIC50 for the items listed next?

1) CN(C)c1ccc(NC(=O)c2cccc3[nH]c(-c4n[nH]c5ncc(-c6cncc7ccccc67)cc45)nc23)cc1    < 4.00
2) CNCc1cncc(-c2cnc3[nH]nc(-c4nc5cc(N6CCN(C)CC6)ccc5[nH]4)c3c2)c1    6.15
3) CN1CCN(C(=O)c2cccc3[nH]c(-c4n[nH]c5ncc(-c6cncc7ccccc67)cc45)nc23)CC1    < 5.00
4) CCNCc1cncc(-c2cnc3[nH]nc(-c4nc5c(COC)cccc5[nH]4)c3c2)c1    < 5.00
5) CCCNCc1cncc(-c2cnc3[nH]nc(-c4nc5cc(N6CCN(C)CC6)ccc5[nH]4)c3c2)c1    5.74
6) CC(C)NCc1cccc2[nH]c(-c3n[nH]c4ncc(-c5cncc6ccccc56)cc34)nc12    < 4.00

State the recorded pIC50 for every item in the following list.
1. OCc1cccc2[nH]c(-c3n[nH]c4ncc(-c5cncc6ccccc56)cc34)nc12
2. COCc1cccc2[nH]c(-c3n[nH]c4ncc(-c5cc[nH]c5)cc34)nc12
3. CN(C)Cc1cncc(-c2cnc3[nH]nc(-c4nc5cc(N6CCN(C)CC6)ccc5[nH]4)c3c2)c1
4. O=C(NC1CCC(O)CC1)c1cccc2[nH]c(-c3n[nH]c4ncc(-c5cncc6ccccc56)cc34)nc12 (centres unmarked)

Out:
1. 6.61
2. < 4.00
3. 5.72
4. < 4.00

Quick request: pIC50 for each listed item, please.
1. COCc1cccc2[nH]c(-c3n[nH]c4ncc(-c5ccc(S(N)(=O)=O)cc5)cc34)nc12
2. COCc1cccc2[nH]c(-c3n[nH]c4ncc(-c5cncc(CN6CCOCC6)c5)cc34)nc12
3. COCc1cccc2[nH]c(-c3n[nH]c4ncc(-c5cncnc5)cc34)nc12
4. Cc1ccccc1NC(=O)c1cccc2[nH]c(-c3n[nH]c4ncc(-c5cncc6ccccc56)cc34)nc12
5. CCN(CC)Cc1cccc2[nH]c(-c3n[nH]c4ncc(Br)cc34)nc12
6. COCc1cccc2[nH]c(-c3n[nH]c4ncc(-c5ccc(N6CCNCC6)nc5)cc34)nc12
7. CCNCc1cncc(-c2cnc3[nH]nc(-c4nc5ccc(F)cc5[nH]4)c3c2)c1

Out:
1: < 4.00; 2: < 4.00; 3: < 4.00; 4: ~4.00; 5: 7.05; 6: < 4.00; 7: 5.29

---

Test system: HCT-116 colon carcinoma
Protocol Details: Cell Proliferation Inhibition Assay (14C-thymidine incorporation), HCT-116;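 note: proliferation measured as methyl 14C-thymidine uptake into new DNA, counted in 96-well scintillating microplates, compared with DMSO-only control wells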
Type: cell-based
Conditions: Homo sapiens, HCT-116, HCT-116 cells
Measured Parameter: pIC50
One number for each entry, as −log10 of the molar value.

For each of the items listed, what is its pIC50?
1. FC1(F)Oc2cc3nc(-c4n[nH]c5ncc(-c6cccnc6)cc45)[nH]c3cc2O1
2. COCc1cccc2[nH]c(-c3n[nH]c4ncc(-c5cncc(CNC(C)C)c5C)cc34)nc12
3. CC(C)NC(=O)c1cccc2[nH]c(-c3n[nH]c4ncc(-c5cncc6ccccc56)cc34)nc12

Out:
1: 6.03; 2: 6.34; 3: 7.38

Hey, can you go through the list below and give me pIC50 for every item?
1. COCc1cccc2[nH]c(-c3n[nH]c4ncc(-c5cncc(CNC(C)C)c5)cc34)nc12
2. CCOCCOCc1cccc2[nH]c(-c3n[nH]c4ncc(-c5cncc6ccccc56)cc34)nc12
3. CCNCc1cncc(-c2cnc3[nH]nc(-c4nc5cc(N6CCN(C)CC6)ccc5[nH]4)c3c2)c1
4. CNCc1cncc(-c2cnc3[nH]nc(-c4nc5ccc(C#N)cc5[nH]4)c3c2)c1

Out:
1: 6.88; 2: 6.63; 3: 6.27; 4: 6.16

In: Let me know recorded pIC50 for COCc1cccc2[nH]c(-c3n[nH]c4ncc(-c5cncc(CNC6CCN(C)CC6)c5)cc34)nc12 , thanks.
Out: 5.64

---

Study System: c-Src kinase (Homo sapiens, UniProt P12931)
Sequence (P12931 whole entry): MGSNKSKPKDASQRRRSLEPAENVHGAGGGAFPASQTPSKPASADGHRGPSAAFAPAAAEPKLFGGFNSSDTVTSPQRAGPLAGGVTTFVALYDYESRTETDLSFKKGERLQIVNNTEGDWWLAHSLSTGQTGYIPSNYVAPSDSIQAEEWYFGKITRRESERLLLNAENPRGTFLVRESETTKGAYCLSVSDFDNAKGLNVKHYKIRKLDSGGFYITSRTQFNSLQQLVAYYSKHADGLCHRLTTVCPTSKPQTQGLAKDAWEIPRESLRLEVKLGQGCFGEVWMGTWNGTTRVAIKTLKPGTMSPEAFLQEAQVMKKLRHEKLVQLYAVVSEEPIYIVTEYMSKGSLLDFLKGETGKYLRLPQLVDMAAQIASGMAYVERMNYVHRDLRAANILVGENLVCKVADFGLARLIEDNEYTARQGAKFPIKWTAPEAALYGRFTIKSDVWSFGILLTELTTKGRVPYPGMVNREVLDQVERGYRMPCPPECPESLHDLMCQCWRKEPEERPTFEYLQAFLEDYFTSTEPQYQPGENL
Measured Parameter: IC50 (nM)
One number for each entry, in nM.

Here's what some known entries look like.
1) c1ccc2c(-c3cnc4[nH]nc(-c5nc6cc(N7CCOCC7)ccc6[nH]5)c4c3)cncc2c1    2.82
2) COCc1cccc2[nH]c(-c3n[nH]c4ncc(-c5cncc(C=NO)c5)cc34)nc12    375
3) COCc1cccc2[nH]c(-c3n[nH]c4ncc(-c5cncc(CNCCN(C)C)c5)cc34)nc12    1010
4) CNCc1cncc(-c2cnc3[nH]nc(-c4nc5c(COC)cccc5[nH]4)c3c2)c1    886
5) CNCc1cncc(-c2cnc3[nH]nc(-c4nc5cc(N6CCN(C)CC6)ccc5[nH]4)c3c2)c1    225

Parameters: items (list). Returns: IC50 for each item.
1. COCc1cccc2[nH]c(-c3n[nH]c4ncc(-c5cncc(CNCCN6CCOCC6)c5)cc34)nc12
2. COCc1cccc2[nH]c(-c3n[nH]c4ncc(-c5ccc(N6CCNCC6)nc5)cc34)nc12
3. COCc1cccc2[nH]c(-c3n[nH]c4ncc(-c5cncc(C=O)c5)cc34)nc12

Out:
1: 954; 2: 597; 3: 92.5

---

System: Human melanoma A375 cells
Protocol Details: In Vivo Models - Inhibition of Tumor Growth (A375 xenograft)
Conditions: female athymic mice, 25 mg/kg i.p. daily, Day 1
For each record, write down the corresponding Tumor volume.
Answers are plain numbers, in mm^3.

1) CCNCc1cncc(-c2cnc3[nH]nc(-c4nc5cc(N6CCN(C)CC6)ccc5[nH]4)c3c2)c1    97.7
2) CCNCc1cncc(-c2cnc3[nH]nc(-c4nc5ccc(F)cc5[nH]4)c3c2)c1    95.4
3) CNCc1cncc(-c2cnc3[nH]nc(-c4nc5cc(OC(F)(F)F)ccc5[nH]4)c3c2)c1    95.4
4) CCNCc1cncc(-c2cnc3[nH]nc(-c4nc5cc(F)c(F)cc5[nH]4)c3c2)c1    95.4

For every item in the list below, what is its measured Tumor volume?
1. CCCNCc1cncc(-c2cnc3[nH]nc(-c4nc5c(COC)cccc5[nH]4)c3c2)c1
2. CCNCc1cncc(-c2cnc3[nH]nc(-c4nc5cc(OC)ccc5[nH]4)c3c2)c1

Out:
95.4
95.4

---

pIC50 data for VEGF-R2 (Rattus norvegicus) follow.
Numbers only, as −log10 of the molar value.

1. c1ccc2c(-c3cnc4[nH]nc(-c5nc6c(CN7CCCC7)cccc6[nH]5)c4c3)cncc2c1 [Cpd 7]    5.80
2. CCOCCOCc1cccc2[nH]c(-c3n[nH]c4ncc(-c5cncc6ccccc56)cc34)nc12 [Cpd 16]    7.22
3. c1ccc2c(-c3cnc4[nH]nc(-c5nc6c(CN7CCCCC7)cccc6[nH]5)c4c3)cncc2c1 [Cpd 8]    6.39
4. COCc1cccc2[nH]c(-c3n[nH]c4ncc(-c5ccc(OC)nc5)cc34)nc12 [Cpd 63]    6.50
5. CCCNCc1cncc(-c2cnc3[nH]nc(-c4nc5cc(OC)ccc5[nH]4)c3c2)c1 [Cpd 103]    7.32
6. COCc1cccc2[nH]c(-c3n[nH]c4ncc(-c5cncc(CNCCO)c5)cc34)nc12 [Cpd 77]    6.46
7. COCc1cccc2[nH]c(-c3n[nH]c4ncc(-c5c[nH]c6ccccc56)cc34)nc12 [Cpd 39]    6.57
8. CCN(CC)Cc1cccc2[nH]c(-c3n[nH]c4ncc(Br)cc34)nc12 [Cpd 6]    6.02

# batch size: 3; output pIC50 per entry
1. c1ccc2c(-c3cnc4[nH]nc(-c5nc6c(CN7CCOCC7)cccc6[nH]5)c4c3)cncc2c1 [Cpd 9]
2. c1ccc2c(-c3cnc4[nH]nc(-c5nc6ccccc6[nH]5)c4c3)cncc2c1 [Cpd 1]
3. COCc1cccc2[nH]c(-c3n[nH]c4ncc(-c5cncnc5)cc34)nc12 [Cpd 68]

Out:
6.68
5.83
6.94

---

As a worked illustration, we turn to pIC50 data collected for c-Src kinase (Homo sapiens, UniProt P12931).
One number for each entry, as −log10 of the molar value.

Example molecules with recorded pIC50:
1) CN1CCN(c2ccc3[nH]c(-c4n[nH]c5ncc(-c6cncc(CN7CCOCC7)c6)cc45)nc3c2)CC1    8.29
2) COCc1cccc2[nH]c(-c3n[nH]c4ncc(-c5cncc(CO)c5)cc34)nc12    6.54
3) CN(C)c1ccc(NC(=O)c2cccc3[nH]c(-c4n[nH]c5ncc(-c6cncc7ccccc67)cc45)nc23)cc1    8.95

Now for the molecule whose pIC50 we want.
In: Please report the measured pIC50 for COCc1cccc2[nH]c(-c3n[nH]c4ncc(-c5cncc(CNCCO)c5)cc34)nc12 tested on c-Src kinase (Homo sapiens, UniProt P12931).
Out: 6.74
